Tested on: Staphylococcus aureus 209 P JC-1
Experiment: Minimum inhibitory concentration (MIC)
Format: cell-based
Conditions: 209PJC1; Staphylococcus aureus 209 P JC-1; bacterial suspension 10^6 cells/ml; sodium salts tested; read-out: Minimum inhibitory concentration
Quick list: MIC per entry.
The figure you give is taken to be in µg/mL; do not add the unit.

The examples below pair each entry with its known result.
>>> measurement("CO[C@@]1(NC(=O)C(NC(=O)c2ccc(O)c(O)c2)c2csc(N)n2)C(=O)N2C(C(=O)O)=C(CSc3nnnn3C)CS[C@@H]21 (mixture of isomers) [Example 12]")
1.56
>>> measurement("CC(=O)OCC1=C(C(=O)O)N2C(=O)[C@@H](NC(=O)C(NC(=O)c3ccc(O)cc3)c3csc(N)n3)[C@H]2SC1 (mixture of isomers) [Example 24]")
0.39
>>> measurement("CCOC(=O)Oc1ccc(C(=O)NC(C(=O)N[C@]2(OC)C(=O)N3C(C(=O)O)=C(COC(C)=O)CS[C@@H]32)c2csc(N)n2)cc1OC(=O)OCC (mixture of isomers) [Example 13]")
1.56
>>> measurement("CO[C@@]1(NC(=O)C(NC(=O)c2ccc(OC(C)=O)c(OC(C)=O)c2)c2csc(N)n2)C(=O)N2C(C(=O)O)=C(CSc3nnnn3C)CS[C@@H]21 (mixture of isomers) [Example 10]")
0.78

// switching to the query compound
Lab book: MIC of CCOC(=O)Oc1ccc(C(=O)NC(C(=O)N[C@@H]2C(=O)N3C(C(=O)O)=C(COC(C)=O)CS[C@H]23)c2csc(N)n2)cc1OC(=O)OCC (mixture of isomers) [Example 19] noted as 0.39

Where do these numbers come from? They come from patent EP0115820A2.
